Reference for the values: ChEMBL document CHEMBL1155778

- measurement target: Substance-P receptor (Homo sapiens, UniProt P25103)
- Sequence (P25103 whole entry): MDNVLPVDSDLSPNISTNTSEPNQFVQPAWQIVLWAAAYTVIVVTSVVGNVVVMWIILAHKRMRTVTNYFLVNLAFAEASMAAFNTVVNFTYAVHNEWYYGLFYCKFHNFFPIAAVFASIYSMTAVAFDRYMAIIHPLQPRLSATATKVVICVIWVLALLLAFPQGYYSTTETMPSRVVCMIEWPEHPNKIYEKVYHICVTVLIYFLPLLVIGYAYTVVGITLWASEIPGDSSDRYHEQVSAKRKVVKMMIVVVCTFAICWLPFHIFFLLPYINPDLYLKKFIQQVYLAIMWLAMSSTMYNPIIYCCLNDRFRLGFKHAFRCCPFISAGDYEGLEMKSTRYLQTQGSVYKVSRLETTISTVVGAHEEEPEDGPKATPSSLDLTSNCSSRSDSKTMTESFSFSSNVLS

- molecule: "C[C@@H](O[C@H]1OCCN(Cc2n[nH]c(=O)[nH]2)[C@H]1c1ccccc1)c1cc(C(F)(F)F)cc(C(F)(F)F)c1"
  measurement target: "Substance-P receptor (Homo sapiens, UniProt P25103)"
  output unit: "nM"
  IC50: 0.09

====

- protocol summary: Metabolic stability in rat hepatocytes after 2 hrs

- compound: "CC(=O)c1cc(S(C)(=O)=O)cc2c3c(n(Cc4ccc(Cl)cc4)c12)[C@@H](CC(=O)O)CC3"
  remaining at 2 h / %: 93
- compound: "CS(=O)(=O)c1cc(F)cc2c3c(n(Cc4ccc(Cl)cc4)c12)C(CC(=O)O)CC3 (stereo not drawn) [DIASTEREOMER 2]"
  remaining at 2 h / %: 32
- compound: "CC(=O)c1cc(F)cc2c3c(n(Cc4ccc(Cl)cc4)c12)C(CC(=O)O)CC3 (stereo not drawn)"
  remaining at 2 h / %: 35

====

- protocol summary: Plasma clearance in rat at 2 mg/kg, po
- Type: ADME, organism-based
- Set-up: dose 2 mg/kg, route oral
measured metric: CL/F

- molecule: "N[C@@H](CC(=O)N1CCn2c(nnc2C(F)(F)C(F)(F)F)C1)Cc1cc(F)c(F)cc1F"
  measured metric: "CL/F"
  result: "58 mL/min/kg"
- molecule: "C[C@H](NC(=O)C(C)(C)Oc1ccccn1)[C@@H](Cc1ccc(Cl)cc1)c1ccccc1"
  measured metric: "CL/F"
  result: "25 mL/min/kg"
- molecule: "C[C@H](NC(=O)C(C)(C)Oc1ccc(C(F)(F)F)cn1)[C@@H](Cc1ccc(Cl)cc1)c1ccccc1"
  measured metric: "CL/F"
  result: "35 mL/min/kg"
- molecule: "C[C@H](NC(=O)C(C)(C)Oc1ccccc1)[C@@H](Cc1ccc(Cl)cc1)c1ccccc1"
  measured metric: "CL/F"
  result: "33 mL/min/kg"
- molecule: "C[C@H](NC(=O)C(C)(C)Oc1ccc(C(F)(F)F)cn1)[C@@H](Cc1ccc(Cl)cc1)c1cccc(C#N)c1 [TARANABANT]"
  measured metric: "CL/F"
  result: "33 mL/min/kg"
- molecule: "N[C@@H](CC(=O)N1CCn2c(nnc2C(F)(F)F)C1)Cc1cc(F)ccc1F"
  measured metric: "CL/F"
  result: "43 mL/min/kg"
- molecule: "N[C@@H](CC(=O)N1CCn2cnnc2C1)Cc1cc(F)c(F)cc1F"
  measured metric: "CL/F"
  result: "40 mL/min/kg"
- molecule: "C[C@H](NC(=O)C(C)(C)Oc1cc(F)cc(F)c1)[C@@H](Cc1ccc(Cl)cc1)c1ccccc1"
  measured metric: "CL/F"
  result: "35 mL/min/kg"
- molecule: "CCc1nnc2n1CCN(C(=O)C[C@H](N)Cc1cc(F)c(F)cc1F)C2"
  measured metric: "CL/F"
  result: "70 mL/min/kg"
- molecule: "N[C@@H](CC(=O)N1CCn2c(nnc2C(F)(F)F)C1)Cc1cc(F)c(F)cc1F [SITAGLIPTIN]"
  measured metric: "CL/F"
  result: "60 mL/min/kg"
- molecule: "N[C@@H](CC(=O)N1CCn2c(nnc2C(F)(F)F)C1)Cc1ccc(F)c(F)c1"
  measured metric: "CL/F"
  result: "51 mL/min/kg"
